Tested on: c-Abl (mouse);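 further: 11-residue human phosphosite peptides and single-mutation variants displayed on the E. coli surface, counted by deep sequencing, each peptide's frequency after selection divided by its frequency in the unselected input library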;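 further: frequency after pTyr selection over input frequency; kinase dosed for 20-30% of maximal phosphorylation in three min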
Test: phosphorylation enrichment, bacterial display (enrichment ratio); higher = better substrate or ligand; peptides without Tyr show the background
Please use YES whenever phosphorylation enrichment is not below 0.7, and NO whenever it is.

Assess whether reported phosphorylation enrichment for FTHSDYQFGQR [PKP2_Y166_S169G_YF] sits at 0.7 or higher. NO

Assess whether reported phosphorylation enrichment for ADKAAYLQNLN [MYH1_Y389] sits at 0.7 or higher. NO

Assess whether reported phosphorylation enrichment for RGGDSYGGPPR [RBMX_Y190_R187G] sits at 0.7 or higher. YES

Assess whether reported phosphorylation enrichment for FSPPFYHRNCM [HGD_Y334_R330S_YF] sits at 0.7 or higher. YES

Assess whether reported phosphorylation enrichment for NNIDFYKKTTN [FGFR2_Y657_YF] sits at 0.7 or higher. NO

Assess whether reported phosphorylation enrichment for DEQKKYYNAMK [SCN5A_Y1494_E1489D] sits at 0.7 or higher. NO

Assess whether reported phosphorylation enrichment for SGETEYNPTEA [NBEAL2_Y2748] sits at 0.7 or higher. YES

Assess whether reported phosphorylation enrichment for AYRRGYFDEEM [PLEC_Y2971] sits at 0.7 or higher. NO

Assess whether reported phosphorylation enrichment for TSSAVYMNLAS [GATAD2B_Y317_I316V] sits at 0.7 or higher. YES

Assess whether reported phosphorylation enrichment for MSRNLYSGDFF [DDR2_Y736_YF] sits at 0.7 or higher. YES

Assess whether reported phosphorylation enrichment for CLLHCYFSQIH [MCM3AP_Y873_R878H] sits at 0.7 or higher. NO

Assess whether reported phosphorylation enrichment for STSFDYCRVPM [BST2_Y8_YF] sits at 0.7 or higher. YES

Assess whether reported phosphorylation enrichment for FTRNYYVQAVL [CYBA_Y88_R90Q] sits at 0.7 or higher. YES

Data credit: the supplement of paper PMC10065799
